- Tested on: P. falciparum 3D7 growth, pLDH absorbance
- Experiment: blood-stage malaria parasite growth potency – strain 3D7, dose response (AID 2305)
Reported endpoint: pIC50
Numbers only, as −log10 of the molar value.

Enter reported pIC50 observed with P. falciparum 3D7 growth, pLDH absorbance for O=C(Nc1ccc(F)c(C(F)(F)F)c1)N[C@H]1CCN(CCCCCNC(=O)[C@@H]2C[C@H]2c2ccc(Cl)c(Cl)c2)C1
6.80

State the recorded pIC50 for every item in the following list.
1. Cc1sc(CNCCCNc2cc(=O)c3ccccc3[nH]2)c(I)c1C
2. CC(=O)N(Cc1cccc(-c2cccc(CNCc3ccc4c(c3)OCO4)c2)c1)C1CCN(Cc2ccccc2)CC1
3. Cc1cnc(CNCc2ccc(S(=O)(=O)Nc3ccc(Oc4cccc(Cl)c4)cc3)cc2)cn1
4. Cc1cc(N)c2cc(NC(=O)c3cc4ccccc4s3)ccc2n1
5. CC(C)N1CCC(N(Cc2ccc(-c3ccc(C(F)(F)F)cc3)cc2)C(=O)CCCn2c(CCc3cccc(F)c3F)nc(=O)c3ccccc32)CC1

1: 6.07; 2: 6.08; 3: 6.11; 4: 6.96; 5: 6.01

# batch: return pIC50 for each of the 3 molecules below
1. OCCN1CCN(C(=S)NC2CCCCC2)CC1
2. COc1ccccc1NS(=O)(=O)c1cc(C(=O)Nc2ccc(N3CCOCC3)c(S(=O)(=O)Nc3ccccc3Cl)c2)ccc1Cl
3. O=C(NC1CCN(Cc2ccccc2)CC1)c1ccc(-c2nc3cc4ccccc4cc3[nH]2)s1

1: 5.96; 2: 6.08; 3: 6.22

* * *

Field: IC50. Provide a value for each of the compounds that follow.
- Test system: P. falciparum 3D7 growth, pLDH absorbance
- Experiment: blood-stage malaria parasite growth potency – strain 3D7, dose response (AID 2305)
Give bare numbers, in nM.

Which IC50 is reported for this compound? Cc1ccc(NC(=O)Nc2ccc(Br)cc2)cc1OCCN(C)C
980

Give IC50 for all compounds that follow.
1. O=C(NC1CC1)c1cnc(N2CCC(COc3cccc(F)c3)CC2)c(Cl)c1
2. Cn1cncc1C(=O)Nc1cccc(-c2ccc(-c3nc4ccc(C(F)(F)F)cc4[nH]3)cc2)c1
3. COC(=O)c1cccc(CNCc2cccc(-c3ccc(-c4nc5ccccc5[nH]4)cc3)c2)c1
4. CC(=O)Nc1ccc(C(=O)Nc2cccc(-c3ccc(-c4nc5ccc(F)cc5[nH]4)cc3)c2)cn1
5. O=C(Nc1cccc(-c2cc(-c3c(Cl)cccc3Cl)no2)c1)c1cnc2ccccc2c1
6. O=C(Nc1cccc(-c2cccc(-c3nc4ccc(F)cc4[nH]3)c2)c1)c1cnc[nH]1
7. O=C(NCc1ccccc1)NC1CCN(c2ccnc3cc(Cl)ccc23)C1 (stereo not given)
8. CN(C)CCNCc1cccc(-c2ccc3c(Nc4ccc(Oc5ccccn5)cc4)ccnc3c2)c1

[1200, 510, 350, 170, 1100, 460, 160, 230]

For every item below, please supply its IC50.
1. CCNc1cc(C(=O)N[C@@H](Cc2ccccc2)[C@H](O)CNC2CCSCC2)cc(N2CCCC2=O)c1
2. CC(C)NCc1ccc(-c2ccc(NC(=O)c3cccc(C#N)c3)cc2)cc1
3. O=C(NCCCCCN1CCC(c2c[nH]c3ccccc23)CC1)Nc1ccc(I)c(Cl)c1

1: 130; 2: 650; 3: 970

// input: 6 compounds below; output: IC50 for each
1. Nc1nc(N)c2c(ccc3c2ccn3Cc2ccccn2)n1
2. Nc1cc(-c2ccc(-c3cccs3)s2)nc2ccccc12
3. CC(C)(C)c1nn(-c2ccc(Cl)cc2)c2[nH]c(=O)c(CNCc3ccc4c(c3)OCO4)cc12
4. COc1ccc(C(=O)Nc2ccc3nc(N4CCCCC4)cc(C)c3c2)cc1[N+](=O)[O-]
5. Cc1ccc(C(C)C)c(Oc2ccc3nc(N)nc(N)c3c2)c1
6. Cc1[nH]c(C)c(-c2ccc(OCc3cc(F)cc(F)c3)nc2)c(=O)c1Br

10
600
810
780
10
100

Would you mind giving IC50 for every compound in the list below?
1. O=[N+]([O-])c1ccc(C(O)CNCCc2ccccc2)cc1OCc1ccccc1 (stereo not given)
2. CCOc1cc(C=Cc2nc3ccccc3c(=O)[nH]2)cc(Cl)c1O
3. CC(=O)Nc1cccc(CNc2cc(C)nc(Nc3ccc(C)cc3)n2)c1
4. Nc1nc(N)c2c3c(cnc2n1)CCCC3

910
1180
1140
770

Take each entry in turn and give its IC50.
1. CC(=O)Nc1cccc(C(=O)Nc2cccc(-c3csc(-c4nc5ccccc5[nH]4)c3)c2)c1
2. CCOC(=O)c1ccc(NC(=O)Nc2cccc(-c3cccc(-c4nc5ccccc5[nH]4)c3)c2)cc1
3. CCN(CC)S(=O)(=O)n1ncc2c3c(N)nc(N)nc3ccc21
4. COc1cccc(-c2cc(C(=O)Nc3ccc4nc(-c5ccccc5)[nH]c4c3)[nH]n2)c1
5. Cc1ccc2c(c1)NC[C@@]21CCN(C[C@@H](O)C2CCN(c3cc(C#N)ccn3)CC2)C[C@@H]1C

[180, 70, 50, 840, 610]

Hi team, please reply with IC50 for each item in this list.
1. CN(C)CCCOc1ccc(CCNCc2cccc(Oc3ccc(Cl)cc3)c2)cc1
2. COc1ccc(-c2cccc(NC(=O)c3cccc(C#N)c3)c2)cc1CN(C)CCN(C)C

[890, 310]

List the reported IC50 of each compound below.
1. N#Cc1cccc(NC(=O)Nc2cccc(OC3CCN(Cc4ccccc4)CC3)c2)c1
2. CCCCC/C=C/C(=O)NC1CCC(CN2CCC(c3c[nH]c4ccccc34)CC2)CC1 (stereo not given)
3. O=C(Nc1cccc(F)c1)NC1CCN(c2ccnc3cc(Cl)ccc23)CC1
4. O=C(Nc1ccc(-c2csc(-c3nc4ccccc4[nH]3)c2)cc1)Nc1ccc(Cl)c(Cl)c1
5. COc1cccc(NC(=O)Nc2cc(C)nc3ccccc23)c1
6. O=C(Nc1ccc(-c2ccc(CN3CCNCC3)cc2)cc1)c1cccc(Cl)c1

[840, 980, 610, 400, 720, 890]

Go through the items and report each one's IC50.
1. Cc1cc(N[C@@H](Cc2ccccc2)C(=O)NCCc2ccccc2)nc(NCc2ccccc2C)n1
2. CCNc1cc(C(=O)N[C@@H](Cc2ccccc2)[C@H](O)CNC2(C(C)C)CCC2)cc(N2CCCCS2(=O)=O)c1
3. COc1ccc(-c2cnc3ccc(NCc4ccc(F)cc4)nn23)cc1OC
4. Cc1cc(NN=Cc2ccc(F)cc2)c2ccc(F)cc2n1
5. Clc1ccccc1C=NNc1ccnc2ccccc12

1: 880; 2: 680; 3: 830; 4: 950; 5: 850
